Target: Cereblon/Casein kinase I alpha (Homo sapiens, UniProt P48729+Q96SW2)
Sequence (P48729 whole entry): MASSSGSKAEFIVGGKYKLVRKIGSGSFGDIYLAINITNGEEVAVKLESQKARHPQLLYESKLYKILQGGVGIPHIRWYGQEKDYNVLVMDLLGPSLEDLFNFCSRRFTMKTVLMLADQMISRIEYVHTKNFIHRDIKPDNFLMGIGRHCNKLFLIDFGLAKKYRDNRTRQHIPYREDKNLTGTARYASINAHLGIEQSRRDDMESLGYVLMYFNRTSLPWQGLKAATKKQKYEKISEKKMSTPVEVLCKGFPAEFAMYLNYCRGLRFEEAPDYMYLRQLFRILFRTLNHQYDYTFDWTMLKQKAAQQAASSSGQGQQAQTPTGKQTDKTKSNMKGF
Sequence (Q96SW2 whole entry): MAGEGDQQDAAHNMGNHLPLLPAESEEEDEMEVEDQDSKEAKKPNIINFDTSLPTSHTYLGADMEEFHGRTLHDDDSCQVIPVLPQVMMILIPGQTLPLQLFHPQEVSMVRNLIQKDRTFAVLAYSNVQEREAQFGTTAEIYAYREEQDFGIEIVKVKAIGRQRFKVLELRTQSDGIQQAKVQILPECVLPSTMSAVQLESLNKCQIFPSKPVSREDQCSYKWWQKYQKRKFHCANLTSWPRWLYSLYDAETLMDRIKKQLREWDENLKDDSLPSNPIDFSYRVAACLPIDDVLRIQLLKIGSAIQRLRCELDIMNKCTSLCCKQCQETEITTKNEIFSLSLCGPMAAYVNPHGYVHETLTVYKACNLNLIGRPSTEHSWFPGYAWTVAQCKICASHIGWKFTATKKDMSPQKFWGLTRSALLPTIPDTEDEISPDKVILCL
Experiment: Molecular glue activity at CRBN/HiBiT-tagged CK1-alpha in human Jurkat cells assessed as induction of CK1-alpha degradation incubated for 5 hrs by Nano-Glo HiBiT assay
Assay type: cell-based
quantity: DC50 (µM)

[
  {
    "compound": "O=C1CCC(N2Cc3cc(-c4cnc5ccccc5c4)ccc3C2=O)C(=O)N1 (stereo not given)",
    "experimental_target": "Cereblon/Casein kinase I alpha (Homo sapiens, UniProt P48729+Q96SW2)",
    "quantity": "DC50",
    "units_symbol": "µM",
    "experimental_result": 0.0468
  }
]

(I) COc1cccn2cc(C(=O)Nc3ccc4c(c3)CN(C3CCC(=O)NC3=O)C4=O)nc12 (stereo not given)
(II) O=C1CCC(N2C(=O)c3ccc(NC(=O)c4cnc5ccccc5c4)cc3C2=O)C(=O)N1 (stereo not given)
Qu. Compare I and II by numeric DC50 and name the larger one. Refer to your chosen entry by its label in the reply.
Ans. II
(II: 0.079 µM, I: 0.0081 µM)
